Data origin, for the record: the supplement of paper PMC9112550

System: Escherichia coli TOP10
Test: shrunken log2 fold change of peptide-encoding DNA abundance (4.5 h post-induction vs induction); higher = less antimicrobial activity (less host growth inhibition)
Details: time post-induction: 4.5 h; library: site-saturation at positions 5, 18, 19, 20
endpoint_name: shrunken log2 fold change
Output: the number by itself.

Reported shrunken log2 fold change for Escherichia coli TOP10, given RRIRERPPRLPRPRPRPWKWPRP ? -0.0653

Form field: shrunken log2 fold change recorded for RRIRGRPPRLPRPRPRPIAMPRP with Escherichia coli TOP10 (enter value) 0.401

Fill in the recorded shrunken log2 fold change for this sequence, with Escherichia coli TOP10 as test system: RRIRTRPPRLPRPRPRPKIVPRP -0.0543

So what shrunken log2 fold change did RRIRKRPPRLPRPRPRPARCPRP get with Escherichia coli TOP10? 0.782

Tell me reported shrunken log2 fold change for RRIRYRPPRLPRPRPRPVNVPRP , tested with Escherichia coli TOP10. -0.0979

Find the measured shrunken log2 fold change: item RRIRDRPPRLPRPRPRPWRLPRP , target or system Escherichia coli TOP10. -0.264

// map RRIRVRPPRLPRPRPRPCQRPRP to recorded shrunken log2 fold change (system: Escherichia coli TOP10) 0.0972

Observed shrunken log2 fold change on Escherichia coli TOP10 for RRIRLRPPRLPRPRPRPDWSPRP , please. -0.124

For Escherichia coli TOP10, provide shrunken log2 fold change of RRIRSRPPRLPRPRPRPASFPRP please. -0.226

Tell me reported shrunken log2 fold change for RRIRYRPPRLPRPRPRPSAFPRP , tested with Escherichia coli TOP10. -0.607

Query for Escherichia coli TOP10: what shrunken log2 fold change does the record show for RRIRLRPPRLPRPRPRPHDVPRP ? 0.0205

Look up shrunken log2 fold change with Escherichia coli TOP10 for this sequence: RRIRYRPPRLPRPRPRPLQEPRP -0.218

Write down the reported shrunken log2 fold change of RRIRCRPPRLPRPRPRPVTMPRP , test system: Escherichia coli TOP10. -0.49

Give recorded shrunken log2 fold change with Escherichia coli TOP10 for the following sequence: RRIRVRPPRLPRPRPRPAACPRP 0.244

Return shrunken log2 fold change measured with Escherichia coli TOP10 given this sequence: RRIRPRPPRLPRPRPRPWTGPRP -0.125

----------
Tested on: Escherichia coli TOP10;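 further: peptides expressed intracellularly from a pBAD plasmid library in pooled LB shake-flask culture, induced with 0.3% L-arabinose, DNA abundance read by NGS, three biological replicates, DESeq2 with apeglm shrinkage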
Assay: shrunken log2 fold change of peptide-encoding DNA abundance (4.5 h post-induction vs induction); higher = less antimicrobial activity (less host growth inhibition)
Conditions: time post-induction: 4.5 h; library: site-saturation at positions 5, 18, 19, 20
endpoint_name: shrunken log2 fold change
Keep it simple and answer with nothing but the number.

Give the measured shrunken log2 fold change of RRIRKRPPRLPRPRPRPQSHPRP . 0.353

Could you share which shrunken log2 fold change value was measured for RRIRSRPPRLPRPRPRPQKLPRP ? 0.0126

Quick check: shrunken log2 fold change of RRIRMRPPRLPRPRPRPRYMPRP ? -0.212

Which shrunken log2 fold change is reported for this sequence? RRIRLRPPRLPRPRPRPGDDPRP 0.431

Look up shrunken log2 fold change: RRIRQRPPRLPRPRPRPSMHPRP -0.0647

Suppose we examine the sequence RRIRKRPPRLPRPRPRPCCNPRP ; what shrunken log2 fold change value has been reported? 0.0185

Using the record for RRIRARPPRLPRPRPRPTDWPRP , report its shrunken log2 fold change. 0.712

# query: shrunken log2 fold change of entry RRIRSRPPRLPRPRPRPCVMPRP 0.0389

Fill in: shrunken log2 fold change of RRIRWRPPRLPRPRPRPDFAPRP is ___ 0.49

What does the record list as shrunken log2 fold change for RRIRARPPRLPRPRPRPPLKPRP ? 0.33

Please report the recorded shrunken log2 fold change for RRIRQRPPRLPRPRPRPRDSPRP . 0.0142

Can you share its shrunken log2 fold change? I mean this sequence: RRIRVRPPRLPRPRPRPRLDPRP 0.238

Entry RRIRPRPPRLPRPRPRPEARPRP : reported shrunken log2 fold change = ? 0.374

So what does the record say about shrunken log2 fold change for RRIRIRPPRLPRPRPRPPQAPRP ? 0.639

Record request: shrunken log2 fold change value, item RRIRRRPPRLPRPRPRPGKGPRP 0.609

Any idea what its shrunken log2 fold change is? The sequence is RRIRFRPPRLPRPRPRPRTRPRP 0.244

// lookup shrunken log2 fold change for RRIRHRPPRLPRPRPRPQWTPRP -0.00992

Would you mind telling me what shrunken log2 fold change value was observed for RRIRGRPPRLPRPRPRPPQMPRP ? 1.77

May I ask what shrunken log2 fold change has been recorded for RRIRGRPPRLPRPRPRPDTKPRP ? 0.239

Please give the measured shrunken log2 fold change for this sequence: RRIRGRPPRLPRPRPRPITTPRP 0.407

Consider the sequence shown here: RRIRIRPPRLPRPRPRPTIWPRP What is its recorded shrunken log2 fold change? -0.157

Record request: shrunken log2 fold change value, item RRIRTRPPRLPRPRPRPQPNPRP 0.0183

shrunken log2 fold change lookup needed for RRIRLRPPRLPRPRPRPVLMPRP , thanks. -0.04

Which shrunken log2 fold change reading was recorded for the sequence RRIRNRPPRLPRPRPRPILCPRP ? -0.174

Quick one: shrunken log2 fold change for RRIRLRPPRLPRPRPRPWHEPRP ? 0.0149

Report shrunken log2 fold change for RRIRLRPPRLPRPRPRPWLPPRP please. -0.464

I'd like to know its shrunken log2 fold change. The sequence in question is RRIRKRPPRLPRPRPRPTAIPRP 0.444

// query shrunken log2 fold change value for entry RRIRVRPPRLPRPRPRPKHHPRP -0.357

Can you share its shrunken log2 fold change? I mean this sequence: RRIRFRPPRLPRPRPRPIGQPRP 0.00854

shrunken log2 fold change lookup needed for RRIRIRPPRLPRPRPRPIEYPRP , thanks. -0.0602

Endpoint output: shrunken log2 fold change of RRIRVRPPRLPRPRPRPGGEPRP . Value? 0.386

If you can, please state the reported shrunken log2 fold change value of RRIRIRPPRLPRPRPRPAFCPRP . 0.167

I have this sequence here, RRIRERPPRLPRPRPRPQCVPRP , and I need its recorded shrunken log2 fold change. -0.0437

# shrunken log2 fold change lookup, item RRIRPRPPRLPRPRPRPFFSPRP -0.0993

Request the reported shrunken log2 fold change associated with RRIRIRPPRLPRPRPRPYCVPRP -0.207

Query: shrunken log2 fold change; subject: RRIRTRPPRLPRPRPRPRKPPRP 0.225

I have this sequence here, RRIRLRPPRLPRPRPRPWPSPRP , and I need its recorded shrunken log2 fold change. 0.341

Can you share its shrunken log2 fold change? I mean this sequence: RRIRSRPPRLPRPRPRPSLGPRP 0.319

Consider the sequence RRIRWRPPRLPRPRPRPFDPPRP and give its measured shrunken log2 fold change. 0.0827

Suppose we examine the sequence RRIRIRPPRLPRPRPRPDSLPRP ; what shrunken log2 fold change value has been reported? -0.163

I'd like to know its shrunken log2 fold change. The sequence in question is RRIRNRPPRLPRPRPRPWTRPRP -0.00821

# query: shrunken log2 fold change of entry RRIRMRPPRLPRPRPRPPVTPRP 0.673

What value of shrunken log2 fold change has been reported for the following sequence? RRIRRRPPRLPRPRPRPDYPPRP 0.0596

Dear colleague, I am looking for the recorded shrunken log2 fold change of the following sequence: RRIRGRPPRLPRPRPRPLLHPRP 0.762

Name the reported shrunken log2 fold change value associated with the sequence RRIRRRPPRLPRPRPRPHGDPRP 0.0543

# input sequence: RRIRYRPPRLPRPRPRPVFFPRP ; wanted: its shrunken log2 fold change -0.367

Given the sequence RRIRHRPPRLPRPRPRPNTIPRP , what is its reported shrunken log2 fold change? -0.903

What value of shrunken log2 fold change has been recorded for this entry: RRIRVRPPRLPRPRPRPKRKPRP 0.376

Requested read-out: shrunken log2 fold change. Entry: RRIRHRPPRLPRPRPRPDMEPRP -0.336

What value of shrunken log2 fold change has been reported for the following sequence? RRIRDRPPRLPRPRPRPHCTPRP -0.0502

Form field: reported shrunken log2 fold change of RRIRNRPPRLPRPRPRPCTFPRP -0.0494

Requested field: shrunken log2 fold change. Item: RRIRSRPPRLPRPRPRPMNYPRP -0.162

Report shrunken log2 fold change for RRIRYRPPRLPRPRPRPADGPRP please. 0.143

Which shrunken log2 fold change value is on record for RRIRDRPPRLPRPRPRPFMVPRP ? 0.00751

Value lookup for shrunken log2 fold change; key = RRIRKRPPRLPRPRPRPYNEPRP -0.254

Fill in: shrunken log2 fold change of RRIRIRPPRLPRPRPRPDPVPRP is ___ -0.0546

Which shrunken log2 fold change is listed for RRIRDRPPRLPRPRPRPYSGPRP ? -0.035

What value of shrunken log2 fold change has been reported for the following sequence? RRIRRRPPRLPRPRPRPTKKPRP 0.253

shrunken log2 fold change for RRIRDRPPRLPRPRPRPMHSPRP ? 0.117

For the sequence shown here, RRIRVRPPRLPRPRPRPWRHPRP , give the reported shrunken log2 fold change. 0.288

# input sequence: RRIRPRPPRLPRPRPRPIATPRP ; wanted: its shrunken log2 fold change -0.159

Report shrunken log2 fold change for RRIRCRPPRLPRPRPRPFQDPRP please. -0.169

Would you kindly share the measured shrunken log2 fold change for RRIRKRPPRLPRPRPRPDAVPRP ? 0.698
